// data source = the Immune Epitope Database (IEDB)

Reported values of pKd for individual entries
target: HLA-A*11:01; experiment: IEDB peptide-MHC binding, purified MHC/competitive/radioactivity; filed as Kd, often an IC50 or EC50 that approximates it; bounds were set here for any values at or beyond the usual limits of such assays; details: source organism: Vaccinia virus WR
pKd is defined as minus the log10 of a concentration measured in mol/L.

Known results for sequences:
1. RARFIGGYIK    7.77
2. IILAALFMY    9.51
3. FMRFFQLLR    6.45
4. PIYSHTERDK    5.18
5. FLLRHYYNKR    5.95
6. VSDFRDYQSY    5.33

Next:
Q) Which pKd is listed for "KTNSTVDVR" ?
A) 7.06

====

target: HLA-A*02:19; experiment: IEDB peptide-MHC binding, purified MHC/direct/fluorescence; filed as Kd, often an IC50 or EC50 that approximates it; bounds were set here for any values at or beyond the usual limits of such assays; settings: source organism: Zaire ebolavirus
quantity: Kd

1. KEGKLQCRI    ≥ 20 µM
2. HPLARTAKV    ≥ 20 µM

Next:
Q) Which Kd is listed for "RDRFKRTSF" ?
A) ≥ 20 µM

====

molecular target: HLA-B*07:02; assay: IEDB peptide-MHC binding, purified MHC/direct/fluorescence; filed as Kd, often an IC50 or EC50 that approximates it; bounds were set here for any values at or beyond the usual limits of such assays; details: source organism: Influenza A virus (A/chicken/Hubei/wm/1997(H5N1))
quantity: Kd

Q) Which Kd is listed for "EKPKFLPDL" ?
A) ≥ 20 µM

====

target: HLA-B*40:01; test: IEDB peptide-MHC binding, purified MHC/direct/fluorescence; filed as Kd, often an IC50 or EC50 that approximates it; bounds were set here for any values at or beyond the usual limits of such assays; conditions: source organism: Influenza A virus (A/chicken/Hubei/wm/1997(H5N1))
pKd: −log10 of the molar value.
quantity: pKd

Q) Which pKd is listed for "EKPKFLPDL" ?
A) ≤ 4.70

====

biological target: HLA-B*51:01; assay: IEDB peptide-MHC binding, purified MHC/direct/fluorescence; filed as Kd, often an IC50 or EC50 that approximates it; bounds were set here for any values at or beyond the usual limits of such assays; details: source organism: Homo sapiens
quantity: pKd
pKd is defined as minus the log10 of a concentration measured in mol/L.

Q) Which pKd is listed for "MAMGILHTI" ?
A) 6.77

====

biological target: HLA-A*01:01; experiment: IEDB peptide-MHC binding, purified MHC/competitive/fluorescence; filed as Kd, often an IC50 or EC50 that approximates it; bounds were set here for any values at or beyond the usual limits of such assays; conditions: source organism: Yersinia pestis Nepal516
quantity: Kd

Known results for sequences:
1) RTLDTLALY    1210 nM
2) FTWSGDVRY    132 nM
3) KTAVVVTRY    455 nM

Next:
Q) Which Kd is listed for "FTIRDVLAY" ?
A) 2.5 nM

====

Reported values of pKd for individual entries
target: HLA-A*24:03; test: IEDB peptide-MHC binding, purified MHC/competitive/fluorescence; filed as Kd, often an IC50 or EC50 that approximates it; bounds were set here for any values at or beyond the usual limits of such assays; details: source organism: Giardia lamblia ATCC 50803
pKd: −log10 of the molar value.

1) NAMGADYYA    ≤ 4.70

Next:
Q) Which pKd is listed for "TEDDWITYI" ?
A) ≤ 4.70

====

target: HLA-A*32:01; experiment: IEDB peptide-MHC binding, purified MHC/competitive/radioactivity; filed as Kd, often an IC50 or EC50 that approximates it; bounds were set here for any values at or beyond the usual limits of such assays; conditions: source organism: Dengue virus 3 Martinique/1243/1999
quantity: Kd (µM)
Return type: number; implicit unit µM.

1) AGVLARWGTF    8.42

Next:
Q) Which Kd is listed for "MAMTDTTPF" ?
A) 0.242

====

target: HLA-B*44:02; experiment: IEDB peptide-MHC binding, purified MHC/direct/fluorescence; filed as Kd, often an IC50 or EC50 that approximates it; bounds were set here for any values at or beyond the usual limits of such assays; conditions: source organism: Alkhumra hemorrhagic fever virus
quantity: Kd

Q) Which Kd is listed for "WPWNAREDV" ?
A) ≥ 20 µM

====

Reported values of Kd for individual entries
target: HLA-B*53:01; assay: IEDB peptide-MHC binding, purified MHC/competitive/radioactivity; filed as Kd, often an IC50 or EC50 that approximates it; bounds were set here for any values at or beyond the usual limits of such assays; settings: source organism: Dengue virus 3 Martinique/1243/1999
Return type: number; implicit unit nM.

Known results for sequences:
1) LPEEQDQNY    1520
2) QPSKGWHDW    207

Q) Which Kd is listed for "MAMTDTTPF" ?
A) 5.45

====

biological target: HLA-B*57:01; test: IEDB peptide-MHC binding, purified MHC/competitive/fluorescence; filed as Kd, often an IC50 or EC50 that approximates it; bounds were set here for any values at or beyond the usual limits of such assays; conditions: source organism: Vaccinia virus WR
quantity: Kd (nM)
Return type: number; implicit unit nM.

Q) Which Kd is listed for "ITMVNSLTY" ?
A) 257

====

target: HLA-B*08:01; assay: IEDB peptide-MHC binding, purified MHC/direct/fluorescence; filed as Kd, often an IC50 or EC50 that approximates it; bounds were set here for any values at or beyond the usual limits of such assays; conditions: source organism: Vibrio vulnificus
pKd: −log10 of the molar value.
quantity: pKd

Q) Please tell me: pKd of "KVMALPIPH" , system HLA-B*08:01?
A) ≤ 4.70

====

molecular target: HLA-B*15:17; experiment: IEDB peptide-MHC binding, purified MHC/competitive/fluorescence; filed as Kd, often an IC50 or EC50 that approximates it; bounds were set here for any values at or beyond the usual limits of such assays; conditions: source organism: Vaccinia virus WR
quantity: Kd (nM)
Return type: number; implicit unit nM.

Q) Which Kd is listed for "ITMVNSLTY" ?
A) 4.1

====

biological target: HLA-A*32:01; assay: IEDB peptide-MHC binding, purified MHC/competitive/radioactivity; filed as Kd, often an IC50 or EC50 that approximates it; bounds were set here for any values at or beyond the usual limits of such assays; conditions: source organism: Dengue virus 1 Brazil/97-11/1997
quantity: Kd (µM)
Return type: number; implicit unit µM.

Q) Which Kd is listed for "ATGPLTTLW" ?
A) 1.05

====

molecular target: HLA-A*01:01; test: IEDB peptide-MHC binding, purified MHC/direct/fluorescence; filed as Kd, often an IC50 or EC50 that approximates it; bounds were set here for any values at or beyond the usual limits of such assays; settings: source organism: Camelpox virus M-96
Reported values of pKd for individual entries
pKd is defined as minus the log10 of a concentration measured in mol/L.

1) FTENGPWMY    8.57

Q) Which pKd is listed for "ITMVNSLTY" ?
A) 7.43

====

target: HLA-B*58:01; test: IEDB peptide-MHC binding, purified MHC/direct/fluorescence; filed as Kd, often an IC50 or EC50 that approximates it; bounds were set here for any values at or beyond the usual limits of such assays; conditions: source organism: SARS-CoV1
quantity: Kd (µM)
Return type: number; implicit unit µM.

1) GTDSGFAAY    11.6

Next:
Q) Which Kd is listed for "KMKELSPRW" ?
A) 0.42

====

molecular target: HLA-A*68:02; assay: IEDB peptide-MHC binding, purified MHC/competitive/radioactivity; filed as Kd, often an IC50 or EC50 that approximates it; bounds were set here for any values at or beyond the usual limits of such assays; details: source organism: Dengue virus 2 Jamaica/1409/1983
Reported values of pKd for individual entries
pKd is defined as minus the log10 of a concentration measured in mol/L.

1) ITASILLWYA    7.91

Next:
Q) Please tell me: pKd of "NSTHEMYWV" , system HLA-A*68:02?
A) 7.04

====

molecular target: HLA-A*31:01; assay: IEDB peptide-MHC binding, purified MHC/direct/fluorescence; filed as Kd, often an IC50 or EC50 that approximates it; bounds were set here for any values at or beyond the usual limits of such assays; details: source organism: Shigella sonnei Ss046
quantity: Kd

Q) Which Kd is listed for "RPVLFRYTR" ?
A) 416 nM

====

target: HLA-B*46:01; test: IEDB peptide-MHC binding, purified MHC/direct/fluorescence; filed as Kd, often an IC50 or EC50 that approximates it; bounds were set here for any values at or beyond the usual limits of such assays; settings: source organism: Toxoplasma gondii RH
pKd: −log10 of the molar value.
quantity: pKd

Q) Which pKd is listed for "THADAHTQL" ?
A) ≤ 4.70
